Source of measurements: ChEMBL document CHEMBL4325899

Listed here are compounds together with their documented CC50 at 72 h.
Assay: Dark toxicity against human MCF10A cells preincubated for 5 mins followed by compound washout and measured after 72 hrs by MTT assay
Type: cell-based, MCF-10A

Looking for the measured CC50 at 72 h of COc1cc(-c2nc3c(nc(C)c4ccc(-c5ccccc5)nc43)o2)cc(OC)c1OC , can you help?
> 50 µM

Looking for the measured CC50 at 72 h of Cc1ccc2c(C)nc3c(nnn3-c3ccccc3)c2n1 , can you help?
> 50 µM

Looking for the measured CC50 at 72 h of COc1ccc(-n2nnc3c4[nH]c(=O)ccc4c(C)nc32)cc1 , can you help?
> 50 µM

Looking for the measured CC50 at 72 h of COc1ccc(-c2ccc3c(C)nc4c(nnn4-c4ccccc4)c3n2)cc1 , can you help?
> 50 µM

Looking for the measured CC50 at 72 h of COc1ccccc1-c1ccc2c(C)nc3oc(-c4cc(OC)c(OC)c(OC)c4)nc3c2n1 , can you help?
> 50 µM
